- Tested on: M. tuberculosis H37Rv
- TEST DETAILS: Antitubercular activity assay, broth dilution, auto-luminescent strain
- Type: cell-based, Mycobacterium tuberculosis
- EXPERIMENTAL CONTEXT: Mycobacterium tuberculosis, H37RV, Day 3rd; read-out: MICs against H37Rv, Day 3rd
Starred links: 1 amine or outer side, 2 acyl side, 3 side chain; linkers in the order of their positions; H or OH if unused. Non-standard residues stand in square brackets, D forms with d. Residues, ends and D or L forms follow the SMILES beside them. X11 = COC(=O)[C@H](Cc1c[nH]cn1)NC(=O)[C@@H](C)C[C@@H](C(=O)[*:2])N(C)[*:1]; Trp(1-(1,1-Me2-allyl)) = C=CC(C)(C)n1cc(C[C@H](N)C(=O)O)c2ccccc21; X12 = C[C@@H](C[C@@H](C(=O)[*:2])N(C)[*:1])C(=O)NCc1ccccc1; Tyr(3-NO2) = N[C@@H](Cc1ccc(O)c([N+](=O)[O-])c1)C(=O)O; Gly(E-crotyl) = C/C=C/C[C@H](N)C(=O)O; NMeL = CN[C@@H](CC(C)C)C(=O)O
PARAMETER MEASURED: MIC (µM)
One number for each entry, in µM.

{"MOLECULE": "C=CC(C)(C)n1cc(C[C@@H]2NC(=O)[C@H](C/C=C/C)NC(=O)[C@H](CC(C)C)NC(=O)[C@H](C[C@H](C)C(=O)NCc3ccccc3)N(C)C(=O)[C@H](C)NC(=O)[C@H](Cc3ccc(O)c([N+](=O)[O-])c3)NC(=O)[C@H](CC(C)C)N(C)C2=O)c2ccccc21 [Compound 9, ilamycin NJL9] (cyclo(A[X12]L[Gly(E-crotyl)][Trp(1-(1,1-Me2-allyl))][NMeL][Tyr(3-NO2)]))", "MEASUREMENT TARGET": "M. tuberculosis H37Rv", "PARAMETER MEASURED": "MIC", "UNIT": "µM", "EXPERIMENTAL VALUE": 3.5}

*Q* Consider the molecule shown here: C=CC(C)(C)n1cc(C[C@@H]2NC(=O)[C@H](C/C=C/C)NC(=O)[C@H](CC(C)C)NC(=O)[C@H](C[C@H](C)C(=O)N[C@@H](Cc3c[nH]cn3)C(=O)OC)N(C)C(=O)[C@H](C)NC(=O)[C@H](Cc3ccc(O)c([N+](=O)[O-])c3)NC(=O)[C@H](CC(C)C)N(C)C2=O)c2ccccc21 [Compound 5, ilamycin NJL5] (cyclo(A[X11]L[Gly(E-crotyl)][Trp(1-(1,1-Me2-allyl))][NMeL][Tyr(3-NO2)])) What is its recorded MIC?
*A* 26.8
